System: Vesicular stomatitis virus
Assay Overview: Antiviral activity against Vesicular stomatitis virus infected in human HeLa assessed as inhibition of virus-induced cytopathicity after 3 days
Type: functional, organism-based
Activity calls are given as the source filed them. The calls are words filed in the database; no cut-off is given here.

[
  {
    "Mol": "CC(C)(C)C(=O)OCOP(=O)(C/C=C/Cn1cnc2c(=O)[nH]c(N)nc21)OCOC(=O)C(C)(C)C",
    "Activity": "inactive"
  },
  {
    "Mol": "CC(C)(C)C(=O)OCOP(=O)(C/C=C/Cn1cnc2c(=O)[nH]cnc21)OCOC(=O)C(C)(C)C",
    "Activity": "inactive"
  },
  {
    "Mol": "CC(C)(C)C(=O)OCOP(=O)(C/C=C/Cn1cnc2c(NC3CCCCC3)ncnc21)OCOC(=O)C(C)(C)C",
    "Activity": "inactive"
  },
  {
    "Mol": "CC(C)(C)C(=O)OCOP(=O)(C/C=C/Cn1cnc2c(NC3CCCCC3)nc(N)nc21)OCOC(=O)C(C)(C)C",
    "Activity": "inactive"
  },
  {
    "Mol": "CC(C)c1ccc(Nc2ncnc3c2ncn3C/C=C/CP(=O)(OCOC(=O)C(C)(C)C)OCOC(=O)C(C)(C)C)cc1",
    "Activity": "inactive"
  },
  {
    "Mol": "CC(C)(C)C(=O)OCOP(=O)(C/C=C/Cn1cnc2c(NC3CC3)nc(N)nc21)OCOC(=O)C(C)(C)C",
    "Activity": "inactive"
  },
  {
    "Mol": "CCCCNc1nc(N)nc2c1ncn2C/C=C/CP(=O)(OCOC(=O)C(C)(C)C)OCOC(=O)C(C)(C)C",
    "Activity": "inactive"
  },
  {
    "Mol": "CC(C)(C)C(=O)OCOP(=O)(C/C=C/Cn1cnc2c(=O)n3cc[nH]c3nc21)OCOC(=O)C(C)(C)C",
    "Activity": "inactive"
  }
]

* * *

Assay Overview: Cytotoxicity against HEL assessed as minimum compound concentration causes microscopically detectable alteration of cell morphology after 3 days
Assay type: cell-based
Run Parameters: human, HEL cells

[
  {
    "Mol": "O=c1[nH]c(=O)n([C@H]2C[C@H](O)[C@@H](CO)O2)cc1/C=C/Br",
    "MCC at 72 h": "> 100 µM"
  },
  {
    "Mol": "COc1nc(N)nc2c1ncn2C/C=C/CP(=O)(OCOC(=O)C(C)(C)C)OCOC(=O)C(C)(C)C",
    "MCC at 72 h": "> 100 µM"
  },
  {
    "Mol": "C=CCNc1ncnc2c1ncn2C/C=C/CP(=O)(OCOC(=O)C(C)(C)C)OCOC(=O)C(C)(C)C",
    "MCC at 72 h": "> 100 µM"
  },
  {
    "Mol": "CC(C)(C)C(=O)OCOP(=O)(C/C=C/Cn1cnc2c(=O)n3cc[nH]c3nc21)OCOC(=O)C(C)(C)C",
    "MCC at 72 h": "> 100 µM"
  },
  {
    "Mol": "CC(C)(C)C(=O)OCOP(=O)(C/C=C/Cn1cnc2c(NC3CC3)nc(N)nc21)OCOC(=O)C(C)(C)C",
    "MCC at 72 h": "> 100 µM"
  },
  {
    "Mol": "CC(C)(C)C(=O)OCOP(=O)(C/C=C/Cn1cnc2c(NC3CC3)ncnc21)OCOC(=O)C(C)(C)C",
    "MCC at 72 h": "> 100 µM"
  },
  {
    "Mol": "CC(C)(C)C(=O)OCOP(=O)(C/C=C/Cn1cnc2c(=O)[nH]c(N)nc21)OCOC(=O)C(C)(C)C",
    "MCC at 72 h": "> 100 µM"
  },
  {
    "Mol": "CCCCNc1ncnc2c1ncn2C/C=C/CP(=O)(OCOC(=O)C(C)(C)C)OCOC(=O)C(C)(C)C",
    "MCC at 72 h": "> 100 µM"
  },
  {
    "Mol": "CC(C)(C)C(=O)OCOP(=O)(C/C=C/Cn1cnc2c(=O)[nH]cnc21)OCOC(=O)C(C)(C)C",
    "MCC at 72 h": "> 100 µM"
  },
  {
    "Mol": "CC(C)c1ccc(Nc2ncnc3c2ncn3C/C=C/CP(=O)(OCOC(=O)C(C)(C)C)OCOC(=O)C(C)(C)C)cc1",
    "MCC at 72 h": "100 µM"
  },
  {
    "Mol": "CC(C)c1ccc(Nc2nc(N)nc3c2ncn3C/C=C/CP(=O)(OCOC(=O)C(C)(C)C)OCOC(=O)C(C)(C)C)cc1",
    "MCC at 72 h": "> 100 µM"
  }
]

Reference source for all entries: ChEMBL document CHEMBL2146385
